Tested on: OVCAR-4
Experiment: NCI tumour cell line growth inhibition, 48 h
Activity calls are given as the source filed them. Cut-off read from the data, not from the text of the source: active = GI50 up to about 1.1 µM and inactive = higher.
Recorded GI50 for the following molecules

Q. Query (molecule): "CCOc1cc(NC(C)=O)ccc1C(=O)NNS(=O)(=O)c1ccc(Cl)cc1Cl" ; field requested: GI50
A. > 50 µM (inactive)

Q. Which GI50 reading was recorded for the molecule "Cc1cc2nc(O)c(CCC(=O)O)nc2cc1C" ?
A. > 100 µM (inactive)

Q. For "O=C1C(=C/C=C2/SC(c3ccccc3)(c3ccccc3)c3ccccc32)C(=O)c2ccccc21" , what is its reported GI50?
A. > 100 µM (inactive)

Q. Look up GI50: "N=c1oc2cc(O)ccc2cc1C(=O)Nc1cccc2ccccc12"
A. 7.01 µM (inactive)

Q. Return reported GI50; argument: "COC(=O)c1cc(/C=C/C(=O)Cc2ccccc2)cn1S(=O)(=O)c1ccccc1"
A. > 100 µM (inactive)

Q. GET /values?readout=GI50&item= O=C(O)C1c2ccccc2C(C(=O)O)c2ccccc21 (centres undefined)
A. > 100 µM (inactive)

----------
System: LOX IMVI
Test: NCI tumour cell line growth inhibition, 48 h
The source made the active and inactive calls. Cut-off read from the data, not from the text of the source: active = GI50 up to about 1.1 µM and inactive = higher.
property_name: GI50

O=Cc1ccc(-c2ccc(-c3ccc(C=O)s3)o2)s1 ... > 100 µM (inactive)

Q. For the compound "CC1=C(O)C(=O)c2cn(C)cc2C1=O" , what GI50 is on record?
A. > 100 µM (inactive)

Q. Name the recorded GI50 for C[C@]12CC(c3ccccc3O1)C(C(=O)NC13CC4CC(CC(C4)C1)C3)C(=O)N2 (stereo not given in full) .
A. 23.4 µM (inactive)

Q. // lookup GI50 for CN1c2ccccc2N(C)C23N(C)c4ccccc4N(C)C12N(C)c1ccccc1N3C (stereo not given)
A. > 100 µM (inactive)

Q. Could you share which GI50 value was measured for "O=C(O)CC1(CC(=O)O)Nc2ccccc2SC1=O" ?
A. > 100 µM (inactive)

Q. Data request, read-out GI50, for "CC(C)c1ccccc1NC(=O)CCC(=O)NN"
A. > 100 µM (inactive)

Q. Which GI50 reading was recorded for the compound COc1c2c(nc3ccccc13)-c1cc(C(CC(=O)OC(C)(C)C)C(=O)OC(C)C)c(CO)c(=O)n1C2 (stereo not given) ?
A. 32.4 µM (inactive)

Q. // returns reported GI50 for input "O=C(/C=C/c1ccc(-c2ccccc2)cc1)NCc1ccc(C(=O)NCCc2c[nH]c3ccccc23)cc1"
A. 48.9 µM (inactive)

Q. Dear colleague, I am looking for the recorded GI50 of the following compound: "CCOC(=O)C(=O)Nc1c(CC)cccc1C(C)C"
A. > 100 µM (inactive)

Q. Can you share its GI50? I mean this compound: "Cc1cc(=O)oc2c(C)c(OCCCOc3ccc4c(C)cc(=O)oc4c3C)ccc12"
A. > 100 µM (inactive)

----------
Reported GI50 is given for each of the following compounds.
Tested on: OVCAR-3
Assay: NCI tumour cell line growth inhibition, 48 h
Active and inactive are the calls of the source. No stated cut-off is given here; in the data, active = GI50 up to about 1.1 µM and inactive = higher.

CC(C)NC(=O)CN1CCN(C2=CC(=O)c3c(O)ccc(O)c3C2=O)CC1 ... 2580 nM (inactive)
O=C(NCCN(CCNC(=O)c1cccc(=O)n1O)CCNC(=O)c1cccc(=O)n1O)c1cccc(=O)n1O ... > 100000 nM (inactive)

Q. Please give the measured GI50 for this compound: c1ccc2c(c1)N=c1cc3c(cc1N2)=NC12CCCCC1CC1=C(CCCC1)N32 (stereo not drawn)
A. 1740 nM (inactive)
